- Target under test: T1, Lag3 on cynomolgus PBMC/T cells (cynomolgus)
- T1 construct: whole, on cells
- Assay: flow cytometry, non-activated cynomolgus PBMC, 10 µg/ml
Quantity kind: Percentage of Lag3 positive cells (%)
# unit: % | format: bare number

Below, 2 binders whose answers are already recorded.
[[record]]
binder = "bivalent 19G3 aVH-Fc (Fc fusion) EVQLVESGGGLVQPGGSLRLSCAASGFNIKYQCIGWVRRAPGKGTELVAEICSYDGYTRYADSVKGRFTISADTSKNTAYLQMNSLRAEDTAVYYCAAEESVEGFIYWGQGTTVTVSSGGGGSGGGGSDKTHTCPPCPAPEAAGGPSVFLFPPKPKDTLMISRTPEVTCVVVDVSHEDPEVKFNWYVDGVEVHNAKTKPREEQYNSTYRVVSVLTVLHQDWLNGKEYKCKVSNKALGAPIEKTISKAKGQPREPQVYTLPPSRDELTKNQVSLTCLVKGFYPSDIAVEWESNGQPENNYKTTPPVLDSDGSFFLYSKLTVDKSRWQQGNVFSCSVMHEALHNHYTQKSLSLSPGK"
experimental_value = 17

[[record]]
binder = "bivalent P9G1 aVH-Fc (Fc fusion) EVQLVESGGGLVQPGGSLRLSCAASGFNIKDTCIGWVRRAPGKGTELVAEICQDIGYTRYADSVKGRFTISADTSKNTAYLQMNSLRAEDTAVYYCAGEEGATNFKYWGQGTTVTVSSGGGGSGGGGSDKTHTCPPCPAPEAAGGPSVFLFPPKPKDTLMISRTPEVTCVVVDVSHEDPEVKFNWYVDGVEVHNAKTKPREEQYNSTYRVVSVLTVLHQDWLNGKEYKCKVSNKALGAPIEKTISKAKGQPREPQVYTLPPSRDELTKNQVSLTCLVKGFYPSDIAVEWESNGQPENNYKTTPPVLDSDGSFFLYSKLTVDKSRWQQGNVFSCSVMHEALHNHYTQKSLSLSPGK"
experimental_value = 24.4


Annotate the binder bivalent P10D1 aVH-Fc (Fc fusion) EVQLVESGGGLVQPGGSLRLSCAASGFSIKDTCIAWVRRAPGKGTELVAEICEDIGYTRYADSVKGRFTISADTSKNTAYLQMNSLRAEDTAVYYCAAKEAGVGFDYWGQGTTVTVSSGGGGSGGGGSDKTHTCPPCPAPEAAGGPSVFLFPPKPKDTLMISRTPEVTCVVVDVSHEDPEVKFNWYVDGVEVHNAKTKPREEQYNSTYRVVSVLTVLHQDWLNGKEYKCKVSNKALGAPIEKTISKAKGQPREPQVYTLPPSRDELTKNQVSLTCLVKGFYPSDIAVEWESNGQPENNYKTTPPVLDSDGSFFLYSKLTVDKSRWQQGNVFSCSVMHEALHNHYTQKSLSLSPGK with its measured Percentage of Lag3 positive cells. 16.9

Annotate the binder bivalent P21A03 aVH-Fc (Fc fusion) EVQLVESGGGLVQPGGSLRLSCAASGFNIKDTCIGWVRRAPGKGTELVAEICEDIGYTRYADSVKGRFTISADTSKNTAYLQMNSLRAEDTAVYYCAANEHSVGFNYWGQGTTVTVSSGGGGSGGGGSDKTHTCPPCPAPEAAGGPSVFLFPPKPKDTLMISRTPEVTCVVVDVSHEDPEVKFNWYVDGVEVHNAKTKPREEQYNSTYRVVSVLTVLHQDWLNGKEYKCKVSNKALGAPIEKTISKAKGQPREPQVYTLPPSRDELTKNQVSLTCLVKGFYPSDIAVEWESNGQPENNYKTTPPVLDSDGSFFLYSKLTVDKSRWQQGNVFSCSVMHEALHNHYTQKSLSLSPGK with its measured Percentage of Lag3 positive cells. 20.8
